Data origin: paper PMC5823406

Protocol notes: Plasma PK study (IV and PO) in male Sprague-Dawley rats
Format: in vivo, rat
Condition: male, Sprague-Dawley, rat, plasma, po, 10 mg/kg, plasma, male Sprague-Dawley rat, PO 10 mg/kg, vehicle DMSO, average; read-out: cmax

- Line notation: "COc1cc(C(=O)/C=C/c2ccc(F)cc2)cc(OC)c1OC"
  cmax [ng/mL]: 32.2

###

Protocol notes: Whole-blood PK study (IV, IP and PO) in male CD-1 mice
Assay type: in vivo, mouse
Condition: male, CD-1, mouse, whole blood, iv, 1 mg/kg, male CD-1 mouse, IV 1 mg/kg, average

- Compound: "COc1cc(C(=O)/C=C/c2ccc(F)cc2)cc(OC)c1OC [C16, 4-fluoro-3’,4’,5’-trimethoxychalcone]"
  Output unit: "µg·h/mL"
  AUC(0-t): 0.02

###

Protocol notes: Whole-blood PK study (IV, IP and PO) in male CD-1 mice
Type: in vivo, mouse
Condition: male, CD-1, mouse, whole blood, ip, 10 mg/kg, mouse, IP 10 mg/kg, 2.0 h, animals 4-6; read-out: Individual blood concentration

- Line notation: "COc1cc(C(=O)/C=C/c2ccc(F)cc2)cc(OC)c1OC"
  concentration at 2 h (ng/mL): 13.4

###

Protocol notes: Plasma PK study (IV and PO) in male Sprague-Dawley rats
Assay type: in vivo, rat
Condition: male, Sprague-Dawley, rat, plasma, iv, 1 mg/kg, rat plasma, IV 1 mg/kg, individual animals 1-3

- Molecule: "COc1cc(C(=O)/C=C/c2ccc(F)cc2)cc(OC)c1OC [C16, 4-fluoro-3’,4’,5’-trimethoxychalcone]"
  Output unit: "mL/min/kg"
  clearance: 73.3

###

Protocol notes: Whole blood stability
Type: in vitro ADME, rat
Condition: male, Sprague-Dawley, rat, fresh whole blood, male Sprague-Dawley rat blood, E-isomer only; read-out: t1/2
Test readout: half-life at 1 μM (min)

- Line notation: "COc1cc(C(=O)/C=C/c2ccc(F)cc2)cc(OC)c1OC"
  Test value: 8.06

###

Protocol notes: Plasma PK study (IV and PO) in male Sprague-Dawley rats
Format: in vivo, rat
Condition: male, Sprague-Dawley, rat, plasma, iv, 1 mg/kg, rat plasma, IV 1 mg/kg, individual animals 1-3; read-out: tmax

- Line notation: "COc1cc(C(=O)/C=C/c2ccc(F)cc2)cc(OC)c1OC"
  Tmax [h]: 0

###

Protocol notes: Whole-blood PK study (IV, IP and PO) in male CD-1 mice
Type: in vivo, mouse
Condition: male, CD-1, mouse, whole blood, po, 10 mg/kg, whole blood, male CD-1 mouse, PO 10 mg/kg, average; read-out: cmax
Test readout: cmax (ng/mL)

- Line notation: "COc1cc(C(=O)/C=C/c2ccc(F)cc2)cc(OC)c1OC"
  Test readout: "cmax"
  Output unit: "ng/mL"
  Test value: 12.5

###

Protocol notes: Whole-blood PK study (IV, IP and PO) in male CD-1 mice
Format: in vivo, mouse
Condition: male, CD-1, mouse, whole blood, iv, 1 mg/kg, mouse, IV 1 mg/kg, 1.0 h, animals 1-3; read-out: Individual blood concentration
Test readout: concentration at 1 h (ng/mL)

- Line notation: "COc1cc(C(=O)/C=C/c2ccc(F)cc2)cc(OC)c1OC"
  Test readout: "concentration at 1 h"
  Test value: 4.5

###

Protocol notes: Whole-blood PK study (IV, IP and PO) in male CD-1 mice
Type: in vivo, mouse
Condition: male, CD-1, mouse, whole blood, ip, 10 mg/kg, male CD-1 mouse, IP 10 mg/kg, average

- Line notation: "COc1cc(C(=O)/C=C/c2ccc(F)cc2)cc(OC)c1OC"
  AUC(0-inf): "114 ng·h/mL"

###

Protocol notes: Whole-blood PK study (IV, IP and PO) in male CD-1 mice
Format: in vivo, mouse
Condition: male, CD-1, mouse, whole blood, iv, 1 mg/kg, mouse blood, IV 1 mg/kg, individual animals 1-3; read-out: Vss

- Line notation: "COc1cc(C(=O)/C=C/c2ccc(F)cc2)cc(OC)c1OC"
  Vd (L/kg): 32.8

###

Protocol notes: Whole-blood PK study (IV, IP and PO) in male CD-1 mice
Format: in vivo, mouse
Condition: male, CD-1, mouse, whole blood, iv, 1 mg/kg, male CD-1 mouse, IV 1 mg/kg, average
Test readout: half-life (min)

- Compound: "COc1cc(C(=O)/C=C/c2ccc(F)cc2)cc(OC)c1OC [C16, 4-fluoro-3’,4’,5’-trimethoxychalcone]"
  Test value: 44.8

###

Protocol notes: Plasma PK study (IV and PO) in male Sprague-Dawley rats
Format: in vivo, rat
Condition: male, Sprague-Dawley, rat, plasma, po, 10 mg/kg, rat plasma, PO 10 mg/kg, individual animals 4-6

- Molecule: "COc1cc(C(=O)/C=C/c2ccc(F)cc2)cc(OC)c1OC [C16, 4-fluoro-3’,4’,5’-trimethoxychalcone]"
  MRT last (h): 4.92

###

Protocol notes: High-dose PK, single PO 300 mg/kg via oral gavage
Format: in vivo
Condition: male, CD-1, mouse, whole blood, po, single 300 mg/kg oral gavage, 0.5 h, Average±SD

- Line notation: "COc1cc(C(=O)/C=C/c2ccc(F)cc2)cc(OC)c1OC"
  concentration at 0.5 h (ng/mL): 32.3

###

Protocol notes: Plasma PK study (IV and PO) in male Sprague-Dawley rats
Assay type: in vivo, rat
Condition: male, Sprague-Dawley, rat, plasma, iv, 1 mg/kg, plasma, male Sprague-Dawley rat, IV 1 mg/kg, vehicle DMSO, average; read-out: tmax
Description: Six male Sprague-Dawley rats (200–350 g) were obtained from Hilltop Labs. Animals were assigned randomly to two groups (IV or PO) of 3 upon arrival. Duration of acclimation was approximately two days. Animals were healthy at the start of the trial. […] Pharmacokinetic parameters were estimated by a non-compartmental model using WinNonlin (v5.2.1 or higher) software. […] Plasma/blood half-life (t1/2) was calculated from 0.693/slope of the terminal elimination phase. […] Clearance (CL) was calculated from dose/AUC. […]

- Line notation: "COc1cc(C(=O)/C=C/c2ccc(F)cc2)cc(OC)c1OC"
  Output unit: "h"
  Tmax: 0

###

Protocol notes: Whole blood stability
Type: in vitro ADME, rat
Condition: fresh whole blood; male Sprague-Dawley rat blood, 120 min; read-out: Compound remaining (% of 0 min)

- Compound: "COc1ccc([C@@H]2Sc3ccccc3N(CCN(C)C)C(=O)[C@@H]2OC(C)=O)cc1 [diltiazem, reference compound]"
  Output unit: "%"
  remaining at 120 min, 1 µM: 45.5
- Compound: "COc1cc(C(=O)/C=C/c2ccc(F)cc2)cc(OC)c1OC [C16, 4-fluoro-3’,4’,5’-trimethoxychalcone]"
  Output unit: "%"
  remaining at 120 min, 1 µM: 7

###

Protocol notes: High-dose PK, single PO 300 mg/kg via oral gavage
Format: in vivo
Condition: mouse, whole blood, po, single 300 mg/kg oral gavage, 3 h, animals 4-1 to 4-3, read-out: Individual whole blood concentration

- Line notation: "COc1cc(C(=O)/C=C/c2ccc(F)cc2)cc(OC)c1OC"
  concentration at 3 h: "18.4 ng/mL"

###

Protocol notes: Whole-blood PK study (IV, IP and PO) in male CD-1 mice
Type: in vivo, mouse
Condition: male, CD-1, mouse, whole blood, ip, 10 mg/kg, male CD-1 mouse, IP 10 mg/kg, average

- Molecule: "COc1cc(C(=O)/C=C/c2ccc(F)cc2)cc(OC)c1OC [C16, 4-fluoro-3’,4’,5’-trimethoxychalcone]"
  Output unit: "min"
  MRT last: 48

###

Protocol notes: Whole blood stability
Format: in vitro ADME, rat
Condition: fresh whole blood; male Sprague-Dawley rat blood, 30 min; read-out: Compound remaining (% of 0 min)
remaining at 30 min, 1 µM for assorted compounds

- Compound: "COc1cc(C(=O)/C=C/c2ccc(F)cc2)cc(OC)c1OC"
  remaining at 30 min, 1 µM (%): 13.8
- Compound: "COc1ccc([C@@H]2Sc3ccccc3N(CCN(C)C)C(=O)[C@@H]2OC(C)=O)cc1 [diltiazem, reference compound]"
  remaining at 30 min, 1 µM (%): 91.1

###

Protocol notes: Plasma PK study (IV and PO) in male Sprague-Dawley rats
Format: in vivo, rat
Condition: male, Sprague-Dawley, rat, plasma, iv, 1 mg/kg, rat, IV 1 mg/kg, 4.0 h, animals 1-3; read-out: Individual plasma concentration

- Line notation: "COc1cc(C(=O)/C=C/c2ccc(F)cc2)cc(OC)c1OC"
  concentration at 4 h: "4.94 ng/mL"

###

Protocol notes: Whole-blood PK study (IV, IP and PO) in male CD-1 mice
Assay type: in vivo, mouse
Condition: male, CD-1, mouse, whole blood, iv, 1 mg/kg, mouse blood, IV 1 mg/kg, individual animals 1-3
Test readout: MRT last (min)

- Line notation: "COc1cc(C(=O)/C=C/c2ccc(F)cc2)cc(OC)c1OC"
  Test readout: "MRT last"
  Output unit: "min"
  Test value: 25.6
